tested on: MRC5; assay: Antiproliferative activity against human MRC5 cells after 72 hrs by sulforhodamine B assay; assay type: cell-based; conditions: MRC5, 72 h
MEASUREMENT_TYPE: pIC50
Formally, pIC50 is defined as -log10 of the concentration c, with c in mol/L.

Read off the recorded pIC50 for CCCCS(=O)(=O)Nc1cc(-c2ccc3ncnc(NCCN(C)C)c3c2)cnc1OC
4.73

* * *

target: PI3K p110 beta/p85 alpha (Homo sapiens, UniProt P42338); assay: Inhibition of N-terminal His6-tagged recombinant full-length PI3Kbeta (unknown origin)/untagged recombinant full length p85alpha expressed in baculovirus infected Sf21 insect cells by ELISA
Sequence (P27986 whole entry): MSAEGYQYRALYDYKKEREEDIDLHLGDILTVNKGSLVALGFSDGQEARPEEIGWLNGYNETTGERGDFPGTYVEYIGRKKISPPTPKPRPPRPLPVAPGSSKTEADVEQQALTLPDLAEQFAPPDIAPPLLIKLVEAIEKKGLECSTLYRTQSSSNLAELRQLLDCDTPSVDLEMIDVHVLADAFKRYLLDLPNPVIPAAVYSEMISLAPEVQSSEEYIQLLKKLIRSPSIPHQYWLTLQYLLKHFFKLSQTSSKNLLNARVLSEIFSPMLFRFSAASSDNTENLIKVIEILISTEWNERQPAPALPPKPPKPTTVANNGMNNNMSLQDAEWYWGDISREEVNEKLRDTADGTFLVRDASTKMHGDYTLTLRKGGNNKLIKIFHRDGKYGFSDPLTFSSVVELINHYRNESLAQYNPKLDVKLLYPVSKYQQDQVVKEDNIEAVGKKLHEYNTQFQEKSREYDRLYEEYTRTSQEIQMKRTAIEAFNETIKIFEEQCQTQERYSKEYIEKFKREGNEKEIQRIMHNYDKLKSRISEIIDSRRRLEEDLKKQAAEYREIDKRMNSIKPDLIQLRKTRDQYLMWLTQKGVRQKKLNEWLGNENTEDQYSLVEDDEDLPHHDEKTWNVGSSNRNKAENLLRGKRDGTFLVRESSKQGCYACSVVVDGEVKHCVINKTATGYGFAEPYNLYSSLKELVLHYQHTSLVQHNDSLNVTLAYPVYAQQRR
Sequence (P42338 whole entry): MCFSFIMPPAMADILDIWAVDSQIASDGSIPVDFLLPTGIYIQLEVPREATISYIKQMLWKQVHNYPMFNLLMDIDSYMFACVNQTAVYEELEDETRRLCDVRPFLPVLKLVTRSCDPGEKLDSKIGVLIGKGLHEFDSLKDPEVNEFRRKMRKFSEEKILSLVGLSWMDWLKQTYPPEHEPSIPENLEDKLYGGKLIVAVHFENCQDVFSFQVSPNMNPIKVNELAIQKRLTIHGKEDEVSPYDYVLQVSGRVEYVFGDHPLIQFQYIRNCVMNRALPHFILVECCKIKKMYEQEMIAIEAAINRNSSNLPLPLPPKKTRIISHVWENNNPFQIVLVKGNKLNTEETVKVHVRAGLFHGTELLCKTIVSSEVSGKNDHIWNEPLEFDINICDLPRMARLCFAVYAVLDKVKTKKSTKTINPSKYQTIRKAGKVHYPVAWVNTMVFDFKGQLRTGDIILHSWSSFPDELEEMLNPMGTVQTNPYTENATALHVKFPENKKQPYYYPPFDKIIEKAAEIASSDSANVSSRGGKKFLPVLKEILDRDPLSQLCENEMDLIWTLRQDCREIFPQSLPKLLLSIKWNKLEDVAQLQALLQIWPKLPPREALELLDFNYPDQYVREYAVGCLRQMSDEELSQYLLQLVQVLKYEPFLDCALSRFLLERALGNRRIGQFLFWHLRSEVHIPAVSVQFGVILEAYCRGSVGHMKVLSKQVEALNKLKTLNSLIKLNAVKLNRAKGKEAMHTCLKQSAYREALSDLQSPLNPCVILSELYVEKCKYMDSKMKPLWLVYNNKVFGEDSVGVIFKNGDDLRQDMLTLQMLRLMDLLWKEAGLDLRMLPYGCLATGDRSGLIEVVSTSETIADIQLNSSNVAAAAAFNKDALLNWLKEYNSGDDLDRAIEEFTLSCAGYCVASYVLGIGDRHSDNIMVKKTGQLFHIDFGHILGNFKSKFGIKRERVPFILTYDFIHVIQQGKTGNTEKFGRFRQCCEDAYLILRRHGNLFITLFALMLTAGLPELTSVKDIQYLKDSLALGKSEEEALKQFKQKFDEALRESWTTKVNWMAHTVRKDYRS
MEASUREMENT_TYPE: IC50 (nM)
Note: unit nM is implicit; provide only the numeric part.

Read off the recorded IC50 for CCCCS(=O)(=O)Nc1cc(-c2ccc3ncnc(NCCN(C)C)c3c2)cnc1OC
396

* * *

test system: MCF7; experiment: Antiproliferative activity against human MCF7 cells after 72 hrs by sulforhodamine B assay; type: functional, cell-based; conditions: MCF7, 72 h
Answer each item with its documented IC50.
Note: unit µM is implicit; provide only the numeric part.

Read off the recorded IC50 for COc1ncc(-c2ccc3ncnc(NCCN(C)C)c3c2)cc1NS(=O)(=O)c1ccc(F)cc1
1.23

Read off the recorded IC50 for CCCCS(=O)(=O)Nc1cc(-c2ccc3ncnc(NCCCN(C)C)c3c2)cnc1OC
4.73

Read off the recorded IC50 for CCCCS(=O)(=O)Nc1cc(-c2ccc3ncnc(NCCN4CCOCC4)c3c2)cnc1OC
10.8

Read off the recorded IC50 for COc1ncc(-c2ccc3ncnc(NCCN(C)C)c3c2)cc1NS(=O)(=O)c1ccc(F)cc1F
1.02

Read off the recorded IC50 for COc1ncc(-c2ccc3ncnc(NCCN4CCOCC4)c3c2)cc1NS(=O)(=O)c1ccc(F)cc1F
28.9

Read off the recorded IC50 for COc1ncc(-c2ccc3ncnc(NCCCN4CCOCC4)c3c2)cc1NS(=O)(=O)c1ccc(F)cc1F
13.5

Read off the recorded IC50 for CCCCS(=O)(=O)Nc1cc(-c2ccc3ncnc(NCc4ccncc4)c3c2)cnc1OC
18.7

Read off the recorded IC50 for CCCCS(=O)(=O)Nc1cc(-c2ccc3ncnc(NCCCN4CCOCC4)c3c2)cnc1OC
4.59

Read off the recorded IC50 for COc1ncc(-c2ccc3ncnc(NCCCN(C)C)c3c2)cc1NS(=O)(=O)c1ccc(F)cc1F
3.66
